Exercise: state measured IC50 at 48 h for each of the compounds provided.
protocol.text: Antiproliferative activity against human HEK293 cells assessed as reduction in cell viability measured for 48 hrs by MTT assay
Type: toxicity, cell-based
Please respond with the number in µM and leave the unit unwritten.

[Q] Requested field: IC50 at 48 h. Item: OCCN1CCC(C2CCN(c3nc(NCc4cccc(F)c4F)c4ncn(C5CCCC5)c4n3)CC2)CC1
[A] 4.28

[Q] # repeat for CC(C)n1cnc2c(NCc3cc(F)cnc3Cl)nc(N3CCC(C4CCN(CCO)CC4)CC3)nc21
[A] 0.46

[Q] Likewise for CC[C@@]1(O)C(=O)OCc2c1cc1n(c2=O)Cc2cc3ccccc3nc2-1 [CAMPTOTHECIN] ?
[A] 0.81

[Q] Now try OCCN1CCC(C2CCN(c3nc(NCc4ccc(F)c(Cl)c4)c4ncn(CC5CC5)c4n3)CC2)CC1 .
[A] 4.32

---

System: MDA-MB-231
protocol.text: Antiproliferative activity against human MDA-MB-231 cells assessed as reduction in cell viability measured for 48 hrs by MTT assay
Assay type: functional, cell-based
cond: MDA-MB-231, 48 h
readout.name: IC50

[Q] Record request: IC50 value, item CC[C@@]1(O)C(=O)OCc2c1cc1n(c2=O)Cc2cc3ccccc3nc2-1
[A] > 100 µM

[Q] Now consider CC(C)n1cnc2c(NCc3cc(F)cnc3Cl)nc(N3CCC(C4CCN(CCO)CC4)CC3)nc21 and answer again.
[A] 0.4 µM

[Q] What do you get for OCCN1CCC(C2CCN(c3nc(NCc4cccc(F)c4F)c4ncn(C5CCCC5)c4n3)CC2)CC1 ?
[A] 3.55 µM

[Q] How about this molecule: OCCN1CCC(C2CCN(c3nc(NCc4ccc(F)c(Cl)c4)c4ncn(CC5CC5)c4n3)CC2)CC1
[A] 3.15 µM

---

The listing below reports IC50 for compounds tested on UniProt P49759.
Sequence (P49759 whole entry): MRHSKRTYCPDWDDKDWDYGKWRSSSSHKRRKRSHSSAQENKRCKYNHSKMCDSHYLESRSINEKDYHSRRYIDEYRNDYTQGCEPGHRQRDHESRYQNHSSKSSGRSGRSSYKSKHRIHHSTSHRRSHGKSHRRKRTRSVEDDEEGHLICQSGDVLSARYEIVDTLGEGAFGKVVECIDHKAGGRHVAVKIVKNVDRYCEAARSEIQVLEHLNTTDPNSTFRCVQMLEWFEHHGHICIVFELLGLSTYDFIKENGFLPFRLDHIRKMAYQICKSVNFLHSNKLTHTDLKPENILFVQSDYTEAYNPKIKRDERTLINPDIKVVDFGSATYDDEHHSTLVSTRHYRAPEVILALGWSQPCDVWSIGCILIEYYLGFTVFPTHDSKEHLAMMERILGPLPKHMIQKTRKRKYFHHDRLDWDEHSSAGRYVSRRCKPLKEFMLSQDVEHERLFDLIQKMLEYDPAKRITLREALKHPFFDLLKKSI
Unit nM implied. Number only.

[Q] Suppose we examine the compound OCCN1CCC(C2CCN(c3nc(NCc4cccc(F)c4F)c4ncn(C5CCCC5)c4n3)CC2)CC1 ; what IC50 value has been reported?
[A] 278

[Q] Proceed to CC(C)n1cnc2c(NCc3ccccn3)nc(N3CCC(C4CCN(CCO)CC4)CC3)nc21
[A] 173

[Q] // next record CC(C)n1cnc2c(NCc3ccc(F)c(F)c3)nc(N3CCC(C4CCN(CCO)CC4)CC3)nc21
[A] 949

---

protocol.text: Antiproliferative activity against human HUVEC cells assessed as reduction in cell viability measured for 48 hrs by MTT assay
Type: toxicity, cell-based
readout.name: IC50 at 48 h (nM)
// return numeric value only (unit: nM, not printed)

[Q] Looking for the measured IC50 at 48 h of OCCN1CCC(C2CCN(c3nc(NCc4cccc(F)c4F)c4ncn(C5CCCC5)c4n3)CC2)CC1 , can you help?
[A] 6180

[Q] CC(C)n1cnc2c(NCc3cc(F)cnc3Cl)nc(N3CCC(C4CCN(CCO)CC4)CC3)nc21 ?
[A] 1550

[Q] CC[C@@]1(O)C(=O)OCc2c1cc1n(c2=O)Cc2cc3ccccc3nc2-1 , same question.
[A] 40

[Q] Request: OCCN1CCC(C2CCN(c3nc(NCc4ccc(F)c(Cl)c4)c4ncn(CC5CC5)c4n3)CC2)CC1
[A] 4260
